# Tested on: S. pyogenes C721
# Method summary: MIC by microtitre broth dilution
# Assay type: cell-based
# Run conditions: Gram+, wt, Todd Hewitt broth, 37° C., 24 h
Recorded endpoint: Minimum inhibitory concentration

Compound: Sc1ncnc2nc[nH]c12
Measurement target: S. pyogenes C721
Assay result: N
--
Compound: CN(Cc1cnc2nc(N)nc(N)c2n1)c1ccc(C(=O)N[C@@H](CCC(=O)O)C(=O)O)cc1 [methotrexate]
Measurement target: S. pyogenes C721
Assay result: 10^−6 Molar
--
Compound: O=C1c2c(O)ccc(O)c2C(=O)c2c(NCCNCCO)ccc(NCCNCCO)c21
Measurement target: S. pyogenes C721
Assay result: 10^−6 Molar
--
Compound: Sc1ncc2[nH]cnc2n1
Measurement target: S. pyogenes C721
Assay result: N
